Origin of values: PubChem BioAssay (NCATS)

Experiment: qHTS profiling of the MIPE4 collection as inhibitors of Plasmodium falciparum (HB3) proliferation (AID 743347);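 note: plate controls were DMSO vehicle wells for no effect and artemisinin wells for full effect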
Conditions: P. falciparum HB3 in erythrocytes, SYBR Green DNA, 72 h; at 28.5 µM (top of the series) unless noted
Quantity name: growth, % of control (%)
Express it in %; write the number only.

Query string: GET /values?readout=growth, % of control&item= O=C(Nc1ccc(Oc2ccnc3[nH]ccc23)c(F)c1)c1cccn(-c2ccc(F)cc2)c1=O
Result string: 7.02

Query string: GET /values?readout=growth, % of control&item= OCCNC1CCCc2c1[nH]c1ccc(-c3ccccc3)cc21 (stereo not drawn)
Result string: 3.72

Query string: GET /values?readout=growth, % of control&item= Oc1cc(-c2nc(-c3ccccc3)[nH]c2-c2ccncc2)ccc1Cl
Result string: 3.61

Query string: GET /values?readout=growth, % of control&item= CCCCOc1ccc(C(=O)Nc2ccc(F)cc2F)cc1
Result string: 94.1

Query string: GET /values?readout=growth, % of control&item= CC[C@H]1OC(=O)[C@H](C)[C@@H](O[C@H]2C[C@@](C)(OC)[C@@H](O)[C@H](C)O2)[C@H](C)[C@@H](O[C@@H]2O[C@@H](C)C[C@H](N(C)C)[C@@H]2O)[C@](C)(O)C[C@@H](C)C(=O)[C@H](C)[C@@H](O)[C@]1(C)O
Result string: 82.4

Query string: GET /values?readout=growth, % of control&item= O=C(NNC(=O)c1ccc(CNS(=O)(=O)c2ccc(F)c(Cl)c2)cc1)c1ccccc1
Result string: 588
